- target entity: GST-VEGFR2 (Homo sapiens)
- Construct: GST-VEGFR2, baculovirus expressed recombinant constructs of the intracellular domains of human TIE2 tagged by GST
- Sequence (P35968 786-1356 limits assumed): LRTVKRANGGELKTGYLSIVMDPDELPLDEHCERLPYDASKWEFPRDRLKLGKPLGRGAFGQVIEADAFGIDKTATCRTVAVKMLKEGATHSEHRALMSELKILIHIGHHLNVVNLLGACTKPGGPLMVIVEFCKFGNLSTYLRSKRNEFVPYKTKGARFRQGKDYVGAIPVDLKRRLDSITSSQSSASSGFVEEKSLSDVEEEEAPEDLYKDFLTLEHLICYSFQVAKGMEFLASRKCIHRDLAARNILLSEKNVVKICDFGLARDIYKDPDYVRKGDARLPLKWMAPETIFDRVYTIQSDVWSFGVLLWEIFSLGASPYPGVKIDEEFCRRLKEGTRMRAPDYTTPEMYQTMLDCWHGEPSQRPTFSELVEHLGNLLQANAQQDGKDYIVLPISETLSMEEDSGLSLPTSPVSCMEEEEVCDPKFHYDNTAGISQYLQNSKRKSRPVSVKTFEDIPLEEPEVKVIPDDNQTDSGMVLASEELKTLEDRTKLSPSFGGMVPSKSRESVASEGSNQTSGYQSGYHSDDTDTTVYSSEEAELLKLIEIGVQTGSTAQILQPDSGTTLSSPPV
- test method notes: VEGF-R2 enzyme assay (VEGF-E), LANCE method
- reported conditions: 75 μM ATP
measured quantity: IC50

See these solved cases before continuing.
>  <compound>
COC(=O)Nc1nc2cc(Oc3ccc(NC(=O)Nc4cccc(SC)c4)cc3)ccc2[nH]1

>  <IC50>
< 100 nM

$$$$
>  <compound>
COC(=O)Nc1nc2cc(Oc3ccc(NC(=O)Nc4cc([N+](=O)[O-])ccc4C)cc3)ccc2[nH]1

>  <IC50>
< 100 nM

$$$$

Dear reader, for each entry below, please note its IC50.
1. COC(=O)Nc1nc2cc(Oc3cccc(NC(=O)Nc4cccc(Br)c4)c3)ccc2[nH]1
2. COC(=O)Nc1nc2ccc(Oc3ccc(NC(=O)Nc4cc(C(F)(F)F)ccc4F)cc3)cc2s1
3. COC(=O)Nc1nc2ccc(Sc3ccc(NC(=O)Nc4cc([N+](=O)[O-])ccc4F)cc3)cc2[nH]1
4. COCCOCC(=O)Nc1nc2cc(Oc3ccc(NC(=O)Nc4nccs4)cc3)ccc2[nH]1
5. CC(C)(C)OC(=O)NCC(=O)Nc1nc2cc(Oc3ccc(NC(=O)Nc4cc(C(F)(F)F)ccc4F)cc3)ccc2[nH]1
6. O=C(Cn1nnc(N2CCCC2)n1)Nc1nc2cc(Oc3ccc(NC(=O)Nc4cc(C(F)(F)F)ccc4F)cc3)ccc2[nH]1
7. COC(=O)Nc1nc2cc(Oc3ccc(NC(=O)Nc4cc(OC)ccc4OC)cc3)ccc2[nH]1
8. COC(=O)Nc1nc2cc([S+]([O-])c3ccc(NC(=O)Nc4cc(C(F)(F)F)ccc4F)cc3)ccc2[nH]1 (stereo not drawn)

< 100 nM
< 100 nM
< 100 nM
100 to 1000 nM
< 100 nM
< 100 nM
< 100 nM
100 to 1000 nM
